# System: HeLa Kyoto;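 also: HeLa Kyoto cells synchronized by double thymidine or nocodazole block, proteins quantified by TMT10plex mass spectrometry, three independent biological replicates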
# ASSAY TEXT: melting temperature (median over replicates), in situ; higher = more thermally stable
# EXPERIMENTAL CONDITIONS: cell cycle stage: mitosis
PROPERTY MEASURED: melting temperature (°C)

MPGSAAKGSELSERIESFVETLKRGGGPRSSEEMARETLGLLRQIITDHRWSNAGELMELIRREGRRMTAAQPSETTVGNMVRRVLKIIREEYGRLHGRSDESDQQESLHKLLTSGGLNEDFSFHYAQLQSNIIEAINELLVELEGTMENIAAQALEHIHSNEVIMTIGFSRTVEAFLKEAARKRKFHVIVAECAPFCQGHEMAVNLSKAGIETTVMTDAAIFAVMSRVNKVIIGTKTILANGALRAVTGTHTLALAAKHHSTPLIVCAPMFKLSPQFPNEEDSFHKFVAPEEVLPFTEGDILEKVSVHCPVFDYVPPELITLFISNIGGNAPSYIYRLMSELYHPDDHVL [EIF2B2] ... 50.5
MCDFTEDQTAEFKEAFQLFDRTGDGKILYSQCGDVMRALGQNPTNAEVLKVLGNPKSDEMNVKVLDFEHFLPMLQTVAKNKDQGTYEDYVEGLRVFDKEGNGTVMGAEIRHVLVTLGEKMTEEEVEMLVAGHEDSNGCINYEAFVRHILSG [MYL6] ... 51.7
MFCVTPPELETKMNITKGGLVLFSANSNSSCMELSKKIAERLGVEMGKVQVYQEPNRETRVQIQESVRGKDVFIIQTVSKDVNTTIMELLIMVYACKTSCAKSIIGVIPYFPYSKQCKMRKRGSIVSKLLASMMCKAGLTHLITMDLHQKEIQGFFNIPVDNLRASPFLLQYIQEEIPDYRNAVIVAKSPASAKRAQSFAERLRLGIAVIHGEAQDAESDLVDGRHSPPMVRSVAAIHPSLEIPMLIPKEKPPITVVGDVGGRIAIIVDDIIDDVDSFLAAAETLKERGAYKIFVMATHGLLSSDAPRRIEESAIDEVVVTNTIPHEVQKLQCPKIKTVDISMILSEAIRRIHNGESMSYLFRNIGLDD [PRPSAP2] ... 57.4
